species on record: Homo sapiens; experiment: Effect on VEGF-stimulated MAPK signaling pathway in HUVEC assessed as ERK1/2 phosphorylation level at 20 uM pretreated for 10 mins followed by VEGF stimulation and subsequent compound addition measured after 20 mins by Western blot analysis relative to control
The source made the active and inactive calls. The rule behind the calls is not given here.

- compound: "CCOC(=O)c1cc(NC(=O)Nc2cccc(F)c2)n(CC(O)c2ccccc2)n1 (stereo not given)"
  Activity: "Active"
- compound: "CCOC(=O)c1cnn(CC(=O)c2ccccc2)c1NC(=O)Nc1cccc(C(F)(F)F)c1"
  Activity: "Active"
- compound: "CCOC(=O)c1cc2n(n1)CC(c1ccccc1)N2C(=O)Nc1cccc(C(F)(F)F)c1 (stereo not given)"
  Activity: "-75%"
- compound: "O=C(c1cnn2c1N(C(=O)Nc1cccc(C(F)(F)F)c1)C(c1ccccc1)C2)N1CCCCC1 (stereo not given)"
  Activity: "83%"
- compound: "CC(C)(C)c1cc(NC(=O)Nc2cccc(C(F)(F)F)c2)n(CC(O)c2ccccc2)n1 (stereo not given)"
  Activity: "Active"
- compound: "CCOC(=O)c1cnn(CC(O)c2ccccc2)c1NC(=O)Nc1cccc(C(F)(F)F)c1 (stereo not given)"
  Activity: "-70%"
- compound: "CCOC(=O)c1cnn(CC(=O)c2ccccc2)c1NC(=O)Nc1ccc(F)cc1"
  Activity: "Active"
- compound: "CCOC(=O)c1cnn(CC(C)O)c1NC(=O)Nc1cccc(C(F)(F)F)c1 (stereo not given)"
  Activity: "Active"
- compound: "CCCC(O)Cn1ncc(C(=O)OCC)c1NC(=O)Nc1cccc(C(F)(F)F)c1 (stereo not given)"
  Activity: "-59%"
